Here's what we have: pIC50 numbers for BTK (Homo sapiens, UniProt Q06187).
pIC50: −log10 of the molar value.

Measured pIC50, `CN(C/C=C/C(=O)N1CC[C@@H](n2c(C3CC3)c(-c3ccc(Oc4ccccc4)cc3)c3c(N)ncnc32)C1)C1CC1` : > 7.00

For record `Cc1c(-c2ccc(Cl)cc2)c2c(N)ncnc2n1-c1cccc(N(C)C(=O)/C=C/CN(C)C2CC2)c1` the listed pIC50 is > 7.00

Measured pIC50 of `CN(C)C/C=C/C(=O)N1CC[C@@H](n2c(F)c(-c3ccc(Oc4ccccc4)cc3)c3c(N)ncnc32)C1` : > 7.00

What the record says about `CN(C/C=C/C(=O)N1CC[C@@H](n2c(C(N)=O)c(-c3ccc(Oc4ccccc4)cc3)c3c(N)ncnc32)C1)C1CC1` : pIC50 is > 7.00

----------
Record form. Attribute: pIC50. Fill in for each entry.
assay-target: BTK (Homo sapiens, UniProt Q06187)
Construct: purified from insect cells as a full-length construct containing a N-terminal 6×-His tag; His6 (N); made in house; host or cells: insect cells (baculovirus, Sf21)
Sequence (Q06187 whole entry): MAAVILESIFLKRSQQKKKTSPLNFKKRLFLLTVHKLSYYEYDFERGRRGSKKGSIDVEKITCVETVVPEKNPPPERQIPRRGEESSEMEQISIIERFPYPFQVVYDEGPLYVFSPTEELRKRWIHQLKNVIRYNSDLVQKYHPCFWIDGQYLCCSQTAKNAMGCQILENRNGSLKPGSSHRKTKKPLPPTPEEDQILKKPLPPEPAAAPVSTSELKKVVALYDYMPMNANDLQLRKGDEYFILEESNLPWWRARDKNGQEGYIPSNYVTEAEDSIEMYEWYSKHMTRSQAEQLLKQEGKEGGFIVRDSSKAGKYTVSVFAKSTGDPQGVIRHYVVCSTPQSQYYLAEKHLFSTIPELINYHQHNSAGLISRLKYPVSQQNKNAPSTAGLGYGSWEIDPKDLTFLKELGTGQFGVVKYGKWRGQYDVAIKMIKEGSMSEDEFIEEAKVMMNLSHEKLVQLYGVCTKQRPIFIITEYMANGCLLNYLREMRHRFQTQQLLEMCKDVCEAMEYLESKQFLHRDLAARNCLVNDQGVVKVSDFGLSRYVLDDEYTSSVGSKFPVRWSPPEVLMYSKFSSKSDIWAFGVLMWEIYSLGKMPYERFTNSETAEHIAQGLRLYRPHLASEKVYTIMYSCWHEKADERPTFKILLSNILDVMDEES
procedure-summary: Btk in vitro inhibitory activity / inhibition of a panel of kinases (TR-FRET, mobility shift or radiometric filter binding)
Format: biochemical
measurement-conditions: kinase assay by one of methods A, B or C
pIC50: −log10 of the molar value.

The value of pIC50 measured for the molecule `COc1c(-c2ccc(Oc3ccccc3)cc2)c2c(N)ncnc2n1[C@@H]1CCN(C(=O)/C=C/CN(C)C)C1` turned out to be > 7.00

Per the records, this molecule ( `Cc1c(-c2ccc(Oc3ccccc3)cc2)c2c(N)ncnc2n1[C@@H]1CCN(C(=O)/C=C/CN(C)C2CC2)C1` ) has pIC50 equal to > 7.00

pIC50 reading for `CN(C/C=C/C(=O)N1CC[C@@H](n2c(C3CC3)c(-c3ccc(Oc4ccccc4)cc3)c3c(N)ncnc32)C1)[C@H]1CCOC1` : > 7.00

Entry `CN(C/C=C/C(=O)N1CC[C@@H](n2c(C#N)c(-c3ccc(Oc4ccccc4)cc3)c3c(N)ncnc32)C1)[C@@H]1CCOC1` — recorded pIC50 = > 7.00

Measured pIC50 of `Cc1c(-c2ccc(Oc3ccccc3)cc2)c2c(N)ncnc2n1[C@@H]1CCCN(C(=O)/C=C/CN(C)C2CC2)C1` : > 7.00

// recorded pIC50 for `COc1cc(-c2c(Cl)n(-c3cccc(N(C)C(=O)/C=C/CN(C)C4CC4)c3)c3ncnc(N)c23)ccc1C` : > 7.00

// pIC50 lookup, molecule = `CN(C/C=C/C(=O)N1CC[C@@H](n2c(F)c(-c3ccc(Oc4ccccc4)cc3)c3c(N)ncnc32)C1)C1CC1` , result: > 7.00

Value of pIC50 reported for the molecule `CN(C/C=C/C(=O)N1CC[C@@H](n2c(N)c(-c3ccc(Oc4ccccc4)cc3)c3c(N)ncnc32)C1)C1CC1` is > 7.00

The molecule listed as `CN(C(=O)/C=C/CN(C)C1CC1)c1ccc(-n2c(Cl)c(-c3ccc(Cl)cc3)c3c(N)ncnc32)cc1` shows pIC50 equal to > 7.00

Item: `CN(C/C=C/C(=O)N1CC[C@@H](n2c(Cl)c(-c3ccc(Oc4cccc(F)c4)cc3)c3c(N)ncnc32)C1)C1CC1` | pIC50: > 7.00

molecule `CN(C)C/C=C/C(=O)N1CC[C@@H](n2c(C#N)c(-c3ccc(Oc4ccccc4)cc3)c3c(N)ncnc32)C1` , pIC50 observed: > 7.00

Lab book: pIC50 of `COCCN(C)C/C=C/C(=O)N1CC[C@@H](n2c(F)c(-c3ccc(Oc4ccccc4)cc3)c3c(N)ncnc32)C1` noted as > 7.00

Briefly, pIC50 measured for `C=CC(=O)N1CC[C@@H](n2c(OC)c(-c3ccc(Cl)cc3)c3c(N)ncnc32)C1` : > 7.00

So, `CN(C/C=C/C(=O)N1CC[C@@H](n2c(-c3ncco3)c(-c3ccc(Oc4ccccc4)cc3)c3c(N)ncnc32)C1)C1CC1` ? Its pIC50 was > 7.00

Entry `CN(C/C=C/C(=O)N1CC[C@@H](n2c(Cl)c(-c3ccc(Oc4ccccc4)cc3)c3c(N)ncnc32)C1)C1CC1` — recorded pIC50 = > 7.00

----------
metric: IC50

Item Cc1c(-c2ccc(Oc3ccccc3)cc2)c2c(N)ncnc2n1[C@@H]1CCN(C(=O)/C=C/CN(C)C2CC2)C1 [Compound 12] ; assay system UniProtKB P00533; IC50 reported as 1 to 10 µM

UniProtKB P00533 data for CN(C/C=C/C(=O)N1CC[C@@H](n2c(F)c(-c3ccc(Oc4ccccc4)cc3)c3c(N)ncnc32)C1)C1CC1 [Compound 5] ; its IC50: 1 to 10 µM

Form field IC50 for item C=CC(=O)N1CC[C@@H](n2c(OC)c(-c3ccc(Cl)cc3)c3c(N)ncnc32)C1 [Compound 46] on UniProtKB P00533: < 0.1 µM

Record C=CC(=O)N1CC[C@@H](n2c(C)c(-c3ccc(Cl)cc3)c3c(N)ncnc32)C1 [Compound 44] / UniProtKB P00533, IC50 recorded as < 0.1 µM
